# Lookup of reported self-splicing fitness (ln) keyed by entry
# PROTOCOL_SUMMARY: self-splicing fitness, log relative to wild type (ln ratio); higher = more splicing; Tetrahymena group I intron in knt gene, E. coli kanamycin selection, DiMSum; sequences stand for … in CUCUCU…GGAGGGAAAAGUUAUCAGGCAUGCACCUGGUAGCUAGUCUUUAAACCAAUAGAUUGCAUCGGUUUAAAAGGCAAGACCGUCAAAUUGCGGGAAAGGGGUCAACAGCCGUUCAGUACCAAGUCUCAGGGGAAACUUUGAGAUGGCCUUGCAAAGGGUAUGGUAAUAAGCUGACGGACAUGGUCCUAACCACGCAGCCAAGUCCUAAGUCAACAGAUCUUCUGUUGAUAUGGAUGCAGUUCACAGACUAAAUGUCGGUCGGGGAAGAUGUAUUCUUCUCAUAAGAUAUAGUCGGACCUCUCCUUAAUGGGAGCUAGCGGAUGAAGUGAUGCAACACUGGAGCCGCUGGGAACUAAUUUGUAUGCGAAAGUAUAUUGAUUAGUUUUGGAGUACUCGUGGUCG;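 also: selection with 25 µg/mL kanamycin versus none on LB agar overnight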
# TEST_CONDITIONS: 37 °C

ORDERED_RESIDUES: ACAAAGCAAUAUUACGCGGC
self-splicing fitness (ln): -3.04

ORDERED_RESIDUES: GUUAAGCAAUAUUACGUGGC
self-splicing fitness (ln): -2.1

ORDERED_RESIDUES: GGCGAGCAAUAUUACGACAA
self-splicing fitness (ln): -1.05

ORDERED_RESIDUES: UGUGAGCAAUAUUACGUUGG
self-splicing fitness (ln): -2.85

ORDERED_RESIDUES: AGCGAGCAAUAUUACGACAU
self-splicing fitness (ln): -0.624

ORDERED_RESIDUES: UCGCAGCAAUAUUACGUCCA
self-splicing fitness (ln): -0.0511

ORDERED_RESIDUES: GGAGAGCAAUAUUACGUCAG
self-splicing fitness (ln): -1.75

ORDERED_RESIDUES: UCCCAGCAAUAUUACGGUUA
self-splicing fitness (ln): 0.0867

ORDERED_RESIDUES: ACGCAGCAAUAUUACGUAUU
self-splicing fitness (ln): -2

ORDERED_RESIDUES: UGUCAGCAAUAUUACGGUGG
self-splicing fitness (ln): -1.32

ORDERED_RESIDUES: GCCUAGCAAUAUUACGUUGG
self-splicing fitness (ln): -2.7

ORDERED_RESIDUES: AAUUAGCAAUAUUACGUCAG
self-splicing fitness (ln): -1.47

ORDERED_RESIDUES: GGCUAGCAAUAUUACGCUGC
self-splicing fitness (ln): -2.65

ORDERED_RESIDUES: UCAGAGCAAUAUUACGUGUC
self-splicing fitness (ln): -2.63

ORDERED_RESIDUES: CUCCAGCAAUAUUACGCUCA
self-splicing fitness (ln): -2.31

ORDERED_RESIDUES: CAGAAGCAAUAUUACGGCCU
self-splicing fitness (ln): -1.82

ORDERED_RESIDUES: UAAUAGCAAUAUUACGUGCG
self-splicing fitness (ln): -0.0439

ORDERED_RESIDUES: UUAAAGCAAUAUUACGGAAG
self-splicing fitness (ln): -0.452

ORDERED_RESIDUES: UACAAGCAAUAUUACGCGAG
self-splicing fitness (ln): -0.536

ORDERED_RESIDUES: GGACAGCAAUAUUACGCAAC
self-splicing fitness (ln): -0.445

ORDERED_RESIDUES: GCUCAGCAAUAUUACGCUAU
self-splicing fitness (ln): -0.658

ORDERED_RESIDUES: CCGUAGCAAUAUUACGUAAU
self-splicing fitness (ln): -1.96

ORDERED_RESIDUES: AUGAAGCAAUAUUACGUAUA
self-splicing fitness (ln): -0.647

ORDERED_RESIDUES: UUGGAGCAAUAUUACGUGGU
self-splicing fitness (ln): -2.56

ORDERED_RESIDUES: UCAAAGCAAUAUUACGCCGU
self-splicing fitness (ln): -0.576

ORDERED_RESIDUES: CACUAGCAAUAUUACGUUCC
self-splicing fitness (ln): -1.65

ORDERED_RESIDUES: CGUAAGCAAUAUUACGGGAG
self-splicing fitness (ln): -2.81

ORDERED_RESIDUES: ACAAAGCAAUAUUACGUAAU
self-splicing fitness (ln): -1.14

ORDERED_RESIDUES: GCAAAGCAAUAUUACGUACG
self-splicing fitness (ln): -1.84

ORDERED_RESIDUES: UUAAAGCAAUAUUACGGGUC
self-splicing fitness (ln): -2.48

ORDERED_RESIDUES: UGGUAGCAAUAUUACGGGAC
self-splicing fitness (ln): -2.89

ORDERED_RESIDUES: GUAAAGCAAUAUUACGCCCU
self-splicing fitness (ln): 0.185

ORDERED_RESIDUES: GAAAAGCAAUAUUACGGCAU
self-splicing fitness (ln): 0.329

ORDERED_RESIDUES: GGCAAGCAAUAUUACGCGUG
self-splicing fitness (ln): -2.11

ORDERED_RESIDUES: GGAUAGCAAUAUUACGACAC
self-splicing fitness (ln): 0.407

ORDERED_RESIDUES: AUUUAGCAAUAUUACGGGAU
self-splicing fitness (ln): -0.217

ORDERED_RESIDUES: UACAAGCAAUAUUACGCAAU
self-splicing fitness (ln): -2.47

ORDERED_RESIDUES: UCGGAGCAAUAUUACGGAUA
self-splicing fitness (ln): -1.96

ORDERED_RESIDUES: GUGGAGCAAUAUUACGCAUG
self-splicing fitness (ln): -1.8

ORDERED_RESIDUES: CAGCAGCAAUAUUACGCUAC
self-splicing fitness (ln): -2.81

ORDERED_RESIDUES: CAAAAGCAAUAUUACGUGCC
self-splicing fitness (ln): -1.41

ORDERED_RESIDUES: CCACAGCAAUAUUACGGCUA
self-splicing fitness (ln): -2.89

ORDERED_RESIDUES: GUGUAGCAAUAUUACGGUCU
self-splicing fitness (ln): 0.619

ORDERED_RESIDUES: CCCUAGCAAUAUUACGGUUA
self-splicing fitness (ln): -2.71

ORDERED_RESIDUES: GGUUAGCAAUAUUACGGUGA
self-splicing fitness (ln): -0.0195

ORDERED_RESIDUES: AAUUAGCAAUAUUACGUGUC
self-splicing fitness (ln): -1.79

ORDERED_RESIDUES: CUCUAGCAAUAUUACGCCAU
self-splicing fitness (ln): -3.56

ORDERED_RESIDUES: ACGAAGCAAUAUUACGUGCA
self-splicing fitness (ln): 0.325

ORDERED_RESIDUES: AGCAAGCAAUAUUACGAAUA
self-splicing fitness (ln): -0.872

ORDERED_RESIDUES: CCGUAGCAAUAUUACGCUUG
self-splicing fitness (ln): -0.347

ORDERED_RESIDUES: UUCAAGCAAUAUUACGAAUC
self-splicing fitness (ln): -2.75

ORDERED_RESIDUES: UUGAAGCAAUAUUACGCCAA
self-splicing fitness (ln): -0.324

ORDERED_RESIDUES: UUAAAGCAAUAUUACGAAAU
self-splicing fitness (ln): -2.12

ORDERED_RESIDUES: CAACAGCAAUAUUACGCACG
self-splicing fitness (ln): 0.246

ORDERED_RESIDUES: GACCAGCAAUAUUACGUGUC
self-splicing fitness (ln): -3.05

ORDERED_RESIDUES: AGGGAGCAAUAUUACGGUUU
self-splicing fitness (ln): -2.39

ORDERED_RESIDUES: ACGGAGCAAUAUUACGGCAC
self-splicing fitness (ln): -2.43

ORDERED_RESIDUES: AACUAGCAAUAUUACGUUCA
self-splicing fitness (ln): -0.728

ORDERED_RESIDUES: AACUAGCAAUAUUACGGAUC
self-splicing fitness (ln): -1.37

ORDERED_RESIDUES: AACAAGCAAUAUUACGUAUG
self-splicing fitness (ln): -1.85

ORDERED_RESIDUES: GAUGAGCAAUAUUACGAGAU
self-splicing fitness (ln): -3.21

ORDERED_RESIDUES: CUAAAGCAAUAUUACGUCUG
self-splicing fitness (ln): 0.458

ORDERED_RESIDUES: UAAUAGCAAUAUUACGCAGA
self-splicing fitness (ln): -0.288

ORDERED_RESIDUES: GAGCAGCAAUAUUACGCAGU
self-splicing fitness (ln): -1.4

ORDERED_RESIDUES: AAUCAGCAAUAUUACGAAGC
self-splicing fitness (ln): -0.998

ORDERED_RESIDUES: CUGGAGCAAUAUUACGGACG
self-splicing fitness (ln): -0.808

ORDERED_RESIDUES: AUCUAGCAAUAUUACGUUCU
self-splicing fitness (ln): -0.607
